# Test system: Pseudomonas aeruginosa
# Assay Notes: Antipseudomonal activity against Pseudomonas aeruginosa PAO581 in Pseudomonas isolation agar assessed as bacterial growth inhibition at 10 uM by disk diffusion assay
# Assay type: functional
# Assay Conditions: read-out: DIZ
Measurement Name: zone of inhibition at 10 µM (mm)
Hi! Could you send only the number? It should be in mm, unit omitted.

Known zone of inhibition at 10 µM results, listed for orientation:
[[record]]
compound = "COc1c(N2CCN(C(C)=O)C(C)C2)c(F)cc2c(=O)c(C(=O)O)cn(C3CC3)c12 (centres undefined)"
measurement_name = "zone of inhibition at 10 µM"
numeric_result = 0

[[record]]
compound = "CCCCN1CCN(c2cc3c(cc2F)c(=O)c(C(=O)O)cn3C2CC2)CC1"
measurement_name = "zone of inhibition at 10 µM"
numeric_result = 0

[[record]]
compound = "O=C(O)CCCN1CCN(c2cc3c(cc2F)c(=O)c(C(=O)O)cn3C2CC2)CC1"
measurement_name = "zone of inhibition at 10 µM"
numeric_result = 0

[[record]]
compound = "C[C@H]1COc2c(C3(N)CC3)c(F)cc3c(=O)c(C(=O)O)cn1c23"
measurement_name = "zone of inhibition at 10 µM"
numeric_result = 20

[[record]]
compound = "CC(=O)NC1(c2c(F)cc3c(=O)c(C(=O)O)cn4c3c2OC[C@@H]4C)CC1"
measurement_name = "zone of inhibition at 10 µM"
numeric_result = 0

[[record]]
compound = "O=CN1CCN(c2cc3c(cc2F)c(=O)c(C(=O)O)cn3C2CC2)CC1"
measurement_name = "zone of inhibition at 10 µM"
numeric_result = 9

[[record]]
compound = "CCn1cc(C(=O)O)c(=O)c2cc(F)c(N3CCN(C)CC3)cc21"
measurement_name = "zone of inhibition at 10 µM"
numeric_result = 14

[[record]]
compound = "CCn1cc(C(=O)O)c(=O)c2cc(F)c(N3CCN(C(C)=O)C(C)C3)c(F)c21 (centres undefined)"
measurement_name = "zone of inhibition at 10 µM"
numeric_result = 0

[[record]]
compound = "COC(=O)CN1CCN(c2cc3c(cc2F)c(=O)c(C(=O)O)cn3C2CC2)CC1"
measurement_name = "zone of inhibition at 10 µM"
numeric_result = 0

[[record]]
compound = "NC[C@H]1O[C@H](O[C@H]2[C@H](O)[C@@H](O[C@H]3O[C@H](CO)[C@@H](O)[C@H](N)[C@H]3O)[C@H](N)C[C@@H]2N)[C@H](N)C[C@@H]1O"
measurement_name = "zone of inhibition at 10 µM"
numeric_result = 17


Notebook: COc1c(N2CCNC(C)C2)c(F)cc2c(=O)c(C(=O)O)cn(C3CC3)c12 (centres undefined) , zone of inhibition at 10 µM read as 23

The compound listed as "COC(=O)CCCN1CCN(c2cc3c(cc2F)c(=O)c(C(=O)O)cn3C2CC2)CC1" shows zone of inhibition at 10 µM equal to 9

// recorded zone of inhibition at 10 µM for "O=C(O)CCC(=O)N1CCN(c2cc3c(cc2F)c(=O)c(C(=O)O)cn3C2CC2)CC1" : 0

// sample "COc1c(N2C[C@@H]3CCCN(C(C)=O)[C@@H]3C2)c(F)cc2c(=O)c(C(=O)O)cn(C3CC3)c12" , its zone of inhibition at 10 µM was 0

Looking up "O=C(O)c1cn(C2CC2)c2cc(N3CCN(Cc4ccccc4)CC3)c(F)cc2c1=O" , I found its zone of inhibition at 10 µM recorded as 0

Summary for this compound, "CCCCCCN1CCN(c2cc3c(cc2F)c(=O)c(C(=O)O)cn3C2CC2)CC1" : zone of inhibition at 10 µM is 0

The recorded zone of inhibition at 10 µM for entry "O=C(O)CN1CCN(c2cc3c(cc2F)c(=O)c(C(=O)O)cn3C2CC2)CC1" equals 0

// field: zone of inhibition at 10 µM; key: "CC(=O)N1CCN(c2cc3c(cc2F)c(=O)c(C(=O)O)cn3C2CC2)CC1" ; value = 13

Briefly, zone of inhibition at 10 µM measured for "CC1(C)S[C@@H]2[C@H](NC(=O)[C@H](C(=O)O)c3ccsc3)C(=O)N2[C@H]1C(=O)O" : 0

Recorded zone of inhibition at 10 µM (compound "COc1c(N2C[C@@H]3CCCN[C@@H]3C2)c(F)cc2c(=O)c(C(=O)O)cn(C3CC3)c12" ): 14

Sourced from ChEMBL document CHEMBL3763028
